B1: Zinc finger MYM-type protein 2, residues 463 to 506; numbered along this chain, Q9UBW7 (parent)
chain: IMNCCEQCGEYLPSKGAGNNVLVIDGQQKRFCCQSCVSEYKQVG

Variants of: B1
Assay: abundance fitness (aPCA) (normalised: wild type 0, dead -1); higher = more abundant; growth selection in yeast, the domain comes from the species named
Details: Homo sapiens

MUTATION_STRING	abundance fitness
K41M	-0.059
L22S	-0.164
V21K	0.395
S38L	-0.038
P13H	-0.187
C8M	-1.1
G26R	-0.255
S38E	0.062
C33R	-0.121
C8W	-1.41
C8Y	-0.311
F31Q	-0.119
C5D	-0.637
